Tested on: RARb homodimer (NR concentration 270 nM)
test.details: PBM binding z-score (relative to random genomic background probes); higher = stronger binding; sequences stand for … in GC…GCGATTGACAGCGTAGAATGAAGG
parameter: PBM binding z-score
Output: the number by itself.

Example entries and their recorded answers appear below.
Let me know recorded PBM binding z-score for `TAGCCTAGGTCATCGGCCAGTATACCACGCGAAC` , thanks.
2.9

Let me know recorded PBM binding z-score for `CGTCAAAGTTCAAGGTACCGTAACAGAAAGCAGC` , thanks.
3.94

***
Let me know recorded PBM binding z-score for `TCATATAGGTAAATGCTAGGTGAACGTCCGATCT` , thanks.
0.575

Let me know recorded PBM binding z-score for `CTACCAAGGTGAACAAGGTCGTTGAATACTATTC` , thanks.
2.13

Let me know recorded PBM binding z-score for `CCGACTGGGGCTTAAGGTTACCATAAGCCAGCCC` , thanks.
0.796

Let me know recorded PBM binding z-score for `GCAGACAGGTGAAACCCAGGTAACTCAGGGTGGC` , thanks.
0.254
